molecular target: D2 dopaminergic receptors (Homo sapiens); assay: Cellular functional assay, D2 dopaminergic receptors; assay type: cell-based; conditions: agonism, D2S (h), HEK-293 cells, percent of control specific agonist response (3 μM dopamine for control)
Sequence (P14416 whole entry): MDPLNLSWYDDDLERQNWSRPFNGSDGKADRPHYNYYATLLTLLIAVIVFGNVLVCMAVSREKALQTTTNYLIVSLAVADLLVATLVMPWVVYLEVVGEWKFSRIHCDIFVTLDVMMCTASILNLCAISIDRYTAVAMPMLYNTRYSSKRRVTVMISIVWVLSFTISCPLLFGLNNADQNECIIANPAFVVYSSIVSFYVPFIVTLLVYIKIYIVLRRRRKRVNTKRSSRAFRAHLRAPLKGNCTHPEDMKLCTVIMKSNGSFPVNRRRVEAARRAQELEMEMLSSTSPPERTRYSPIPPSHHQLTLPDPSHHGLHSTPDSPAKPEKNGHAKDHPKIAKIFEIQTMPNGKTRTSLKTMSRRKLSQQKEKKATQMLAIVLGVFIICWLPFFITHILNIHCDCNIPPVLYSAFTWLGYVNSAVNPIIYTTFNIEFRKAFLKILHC
Consider the cut-off 4%. If the recorded D2 ag [%] is strictly smaller, the label is Met; if not, the label is Not met.

# compound, group
rows = [
    ("Cc1c(S(=O)(=O)NCC2CN(CCCc3noc4cc(F)ccc34)C2)sc2ccc(Cl)cc12", "Not met"),
    ("O=S(=O)(N[C@@H]1CCN(CCCc2noc3cc(F)ccc23)C1)c1ccc2ccccc2c1", "Met"),
    ("O=S(=O)(NC1CCN(CCCc2noc3cc(F)ccc23)C1)c1cc2ccc(F)cc2s1 (stereo not drawn)", "Met"),
    ("COc1ccc2cc(S(=O)(=O)N[C@H]3CCN(CCCc4noc5cc(F)ccc45)C3)ccc2c1", "Not met"),
    ("O=S(=O)(N[C@@H]1CCN(CCCc2noc3cc(F)ccc23)C1)c1cc2ccccc2s1", "Met"),
    ("O=S(=O)(NC1CCN(CCCc2noc3cc(F)ccc23)C1)c1ccc2ccccc2c1 (stereo not drawn)", "Not met"),
    ("O=S(=O)(NC1CCN(CCCc2noc3cc(F)ccc23)C1)c1csc2ccccc12 (stereo not drawn)", "Met"),
]

* * *

Biological target: 5-HT2A receptor (Homo sapiens)
Construct: purchased PerkinElmer
Test: Radioligand binding assay, serotoninergic 5-HT2A receptors
Settings: binding assay result in %, Table 5a
Source text: The specific ligand binding to the receptors is defined as the difference between the total binding and the non-specific binding determined in the presence of the excess of unlabelled ligand. The results are expressed as a percent of control specific binding ((measured specific binding/control specific binding)×100) and as a percent inhibition of control specific binding (100−((measured specific binding/control specific binding)×100)) obtained in the presence of the test compounds. […]
measuredQuantity: inhibition at 1 µM

# compound, experimentalValue
rows = [
    ("O=S(=O)(NCC1CCN(CCCc2noc3cc(F)ccc23)C1)c1ccccc1 (centres unmarked) [Compound 245]", "73%"),
    ("O=S(=O)(NC1CN(CCOc2cccc3[nH]ccc23)C1)c1cccc2ccccc12 [Compound 49]", "82%"),
    ("O=S(=O)(NCC1CCN(CCCc2noc3cc(F)ccc23)C1)c1ccc(-c2ccccc2)cc1 (centres unmarked) [Compound 241]", "97%"),
    ("CC(C)(C)c1ccc(S(=O)(=O)NCC2CN(CCOc3cccc4c3OCCO4)C2)cc1 [Compound 181]", "89%"),
    ("O=S(=O)(NC1CCN(CCCc2c[nH]c3ccc(F)cc23)C1)c1ccc(Cl)cc1 (centres unmarked) [Compound 77]", "100%"),
    ("O=S(=O)(NC1CCN(CCOc2cccc3[nH]ccc23)C1)c1cccc2ccccc12 (centres unmarked) [Compound 53]", "85%"),
    ("O=S(=O)(NCC1CCN(CCOc2cccc3ccccc23)C1)c1ccc(F)c(Cl)c1 (centres unmarked) [Compound 277]", "85%"),
    ("O=S(=O)(NCC1CN(CCOc2nsc3ccccc23)C1)c1ccc2ccccc2c1 [Compound 162]", "-17%"),
]

* * *

Target: dopaminergic receptors D2 (Homo sapiens, UniProt P14416)
Test: Radioligand binding assay, dopaminergic D2 receptors
Settings: binding assay, test compound 1×10^−6 M
Text: The specific ligand binding to the receptors is defined as the difference between the total binding and the non-specific binding determined in the presence of the excess of unlabelled ligand. The results are expressed as a percent of control specific binding ((measured specific binding/control specific binding)×100) and as a percent inhibition of control specific binding (100−((measured specific binding/control specific binding)×100)) obtained in the presence of the test compounds. […]

# compound, subjectOfTest, unitTag, inhibition at 1 µM
records = [
    ("Cn1ccc2cc(S(=O)(=O)NCC3CN(CCOc4cccc5ccccc45)C3)ccc21", "dopaminergic receptors D2 (Homo sapiens, UniProt P14416)", "%", 84),
    ("O=S(=O)(NC1CCN(CCCc2noc3cc(F)ccc23)C1)c1ccc(Br)cc1 (stereo not drawn)", "dopaminergic receptors D2 (Homo sapiens, UniProt P14416)", "%", 99),
    ("O=S(=O)(N[C@@H]1CCN(CCCc2noc3cc(F)ccc23)C1)c1cc2ccccc2o1", "dopaminergic receptors D2 (Homo sapiens, UniProt P14416)", "%", 97),
]

* * *

Target: 5-HT6 serotoninergic receptors (Homo sapiens, UniProt P50406)
Sequence (P50406 whole entry): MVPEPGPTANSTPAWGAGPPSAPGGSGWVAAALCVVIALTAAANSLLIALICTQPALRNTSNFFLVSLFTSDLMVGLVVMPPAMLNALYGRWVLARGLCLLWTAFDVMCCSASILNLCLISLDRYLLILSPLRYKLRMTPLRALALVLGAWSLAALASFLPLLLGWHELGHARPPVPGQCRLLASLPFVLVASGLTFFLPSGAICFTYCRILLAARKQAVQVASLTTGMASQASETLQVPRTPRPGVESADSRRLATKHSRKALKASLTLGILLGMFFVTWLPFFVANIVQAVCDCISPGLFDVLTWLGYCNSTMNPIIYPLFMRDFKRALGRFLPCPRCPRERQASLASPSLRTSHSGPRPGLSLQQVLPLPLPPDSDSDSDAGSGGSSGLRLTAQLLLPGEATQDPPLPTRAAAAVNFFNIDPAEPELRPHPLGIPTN
Experiment: Cellular functional assay, 5-HT6 serotoninergic receptors
Type: cell-based
Settings: agonist mode; percent of control specific agonist response
Experimental: The results are expressed as a percent of control specific agonist response ((measured specific response/control specific agonist response)×100) obtained in the presence of the test compounds. […] For the antagonists, the apparent dissociation constants (Kb) were calculated using the modified Cheng Prusoff equation (Kb=IC50/(1+(A/EC50A)), where A=concentration of reference agonist in the assay, and EC50A=EC50 value of the reference agonist).
Entries and their 5-HT6 ag [%] values follow.

# smilesInput, 5-HT6 ag [%]
measured = [
    ("O=S(=O)(N[C@@H]1CCN(CCCc2noc3cc(F)ccc23)C1)c1csc2ccccc12", "−1%"),
    ("O=S(=O)(N[C@@H]1CCN(CCCc2noc3cc(F)ccc23)C1)c1cc2ccccc2s1", "−2%"),
    ("COc1ccc2cc(S(=O)(=O)N[C@@H]3CCN(CCCc4noc5cc(F)ccc45)C3)ccc2c1", "−1%"),
    ("Cc1c(S(=O)(=O)NCC2CN(CCCc3noc4cc(F)ccc34)C2)sc2ccc(F)cc12", "4%"),
]

* * *

target: dopaminergic receptors D2 (Homo sapiens, UniProt P14416); test: Radioligand binding assay, dopaminergic D2 receptors; details: binding assay, test compound 1×10^−6 M

# smilesInput, inhibition at 1 µM / %
measured = [
    ("O=S(=O)(N[C@@H]1CCN(CCCc2noc3cc(F)ccc23)C1)c1ccc2ccccc2c1", 101),
    ("Cn1ccc2c(S(=O)(=O)NCC3CN(CCOc4cccc5c4OCCO5)C3)cccc21", 52),
    ("O=S(=O)(NC1CN(CCOc2cccc3[nH]ccc23)C1)c1cccc(Cl)c1", 83),
    ("O=S(=O)(NCC1CN(CCOc2cccc3c2OCCO3)C1)c1ccc(Br)cc1", 25),
]

* * *

Biological target: 5-HT2A receptor (Homo sapiens, UniProt P28223)
Construct: purchased PerkinElmer
Sequence (P28223 whole entry): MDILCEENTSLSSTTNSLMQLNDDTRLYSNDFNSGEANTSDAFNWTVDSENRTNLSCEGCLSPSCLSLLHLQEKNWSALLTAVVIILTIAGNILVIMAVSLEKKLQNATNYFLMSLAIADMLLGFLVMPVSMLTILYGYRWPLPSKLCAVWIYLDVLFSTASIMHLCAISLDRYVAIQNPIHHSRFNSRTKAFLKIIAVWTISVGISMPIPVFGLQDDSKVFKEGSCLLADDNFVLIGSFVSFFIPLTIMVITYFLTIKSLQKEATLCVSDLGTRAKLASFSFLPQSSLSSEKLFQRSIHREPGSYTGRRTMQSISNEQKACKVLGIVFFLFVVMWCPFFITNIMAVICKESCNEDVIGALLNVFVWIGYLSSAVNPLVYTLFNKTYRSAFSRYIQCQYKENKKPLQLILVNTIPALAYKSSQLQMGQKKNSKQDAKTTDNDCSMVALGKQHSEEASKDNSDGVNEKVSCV
Experiment: Radioligand binding assay, serotoninergic 5-HT2A receptors
Settings: binding assay result in %, Table 5a
Text: The specific ligand binding to the receptors is defined as the difference between the total binding and the non-specific binding determined in the presence of the excess of unlabelled ligand. The results are expressed as a percent of control specific binding ((measured specific binding/control specific binding)×100) and as a percent inhibition of control specific binding (100−((measured specific binding/control specific binding)×100)) obtained in the presence of the test compounds. […]
Entries and their inhibition at 1 µM values follow.
measuredQuantity: inhibition at 1 µM (%)

# molecule, subjectOfTest, measuredQuantity, experimentalValue
data = [
    ("O=S(=O)(NC1CCN(CCCc2c[nH]c3ccc(Cl)cc23)C1)c1cccc(Cl)c1 (stereo not shown) [Compound 84]", "5-HT2A receptor (Homo sapiens, UniProt P28223)", "inhibition at 1 µM", 78),
    ("Cc1ccc(S(=O)(=O)NC2CCN(CCCc3noc4cc(F)ccc34)C2)cc1 (stereo not shown) [Compound 209]", "5-HT2A receptor (Homo sapiens, UniProt P28223)", "inhibition at 1 µM", 86),
    ("O=S(=O)(NCC1CCN(CCOc2cccc3c2OCCO3)C1)c1cccc(O)c1 (stereo not shown) [Compound 303]", "5-HT2A receptor (Homo sapiens, UniProt P28223)", "inhibition at 1 µM", 96),
    ("Cn1ccc2c(S(=O)(=O)NCC3CN(CCOc4cccc5c4OCCO5)C3)cccc21 [Compound 188]", "5-HT2A receptor (Homo sapiens, UniProt P28223)", "inhibition at 1 µM", 89),
]

* * *

Entries and their 5-HT6 ag [%] values follow.
molecular target: 5-HT6 serotoninergic receptors (Homo sapiens, UniProt P50406); assay: Cellular functional assay, 5-HT6 serotoninergic receptors; type: cell-based; settings: agonist mode; percent of control specific agonist response
measuredQuantity: 5-HT6 ag [%] (%)

# compound, subjectOfTest, experimentalValue
records = [
    ("O=S(=O)(NCC1CCN(CCCc2noc3cc(F)ccc23)C1)c1ccc2ccccc2c1 (stereo not shown)", "5-HT6 serotoninergic receptors (Homo sapiens, UniProt P50406)", 4),
    ("O=S(=O)(NC1CCN(CCOc2nsc3ccccc23)C1)c1ccc2ccccc2c1 (stereo not shown)", "5-HT6 serotoninergic receptors (Homo sapiens, UniProt P50406)", "−1"),
    ("O=S(=O)(N[C@@H]1CCN(CCCc2noc3cc(F)ccc23)C1)c1ccc2cc(Cl)ccc2c1", "5-HT6 serotoninergic receptors (Homo sapiens, UniProt P50406)", "−2"),
    ("O=S(=O)(N[C@H]1CCN(CCCc2noc3cc(F)ccc23)C1)c1cc2ccc(Cl)cc2s1", "5-HT6 serotoninergic receptors (Homo sapiens, UniProt P50406)", "−3"),
]
